System: Vero
Experiment: Antiviral activity was measured against Reo virus-1 in african green monkey kidney (Vero B) cells.
Type: functional
Conditions: Chlorocebus sabaeus
This listing pairs compounds with measured MCC.

COMPOUND | REL | MCC [µg/mL]
Nc1nc(S)c2ncn(C3O[C@H](CO)[C@H](O)[C@H]3O)c2n1 (some centres undefined) | > | 200
Nc1nccc2c1ncn2[C@@H]1C[C@H](CO)[C@@H](O)[C@H]1O [3-DEAZAARISTEROMYCIN A] | = | 2
Nc1ncnc2c1ncn2[C@@H]1O[C@H](CO)[C@H](O)[C@H]1O | > | 40
NC(=O)c1ncn([C@@H]2O[C@H](CO)[C@@H](O)[C@H]2O)n1 [RIBAVIRIN] | = | 7
